Assay: NCI Yeast Anticancer Drug Screen. Data for the mec2-1 strain (AID 157)
Details: S. cerevisiae mec2-1 strain, at 50.0 µM, hits give high values
Compounds without any hit were thinned out: in the full panel of roughly 79,000, 15% have a hit.
Measured Attribute: growth inhibition (%)
Report only the number, with the unit % understood.

According to the records, this molecule CCOC(=O)C1OC(C2(C)OC3(OC4(C=CC3O)OC(C(C)C(=O)C(C)C(O)C(C)CC(C)c3c(Cl)cc(C)c(O)c3C(=O)O)C(C)CC4C)C(C)C2OC)CC1O (centres undefined) displays growth inhibition of -27

According to the records, this molecule Nc1nc(N)c(-c2ccc(Cl)c(Cl)c2)c(COc2ccc(CNC(=O)Nc3cccc(S(=O)(=O)F)c3)cc2Cl)n1 displays growth inhibition of 58.9

According to the records, this molecule Cn1ccnc1C[N-]Cc1nccn1C.O=[N+]([O-])[O-].O=[N+]([O-])[O-].[Cu+2] displays growth inhibition of 7.5

According to the records, this molecule CCCCCCCCCl displays growth inhibition of -4.7

----------
Answer each item with its documented growth inhibition.
Assay: NCI Yeast Anticancer Drug Screen. Data for the mlh1 rad18 strain (AID 175)
Details: S. cerevisiae mlh1 rad18 strain growth inhibition; at 50.0 µM; hits give high values
Procedure: Growth inhibition of yeast strains with defined genetic alterations is measured as a screen for potential anti-cancer activity. Selected strains with alterations in DNA damage repair or cell cycle control were exposed to compounds and growth inhibition was measured relative to vehicle treated controls. The strain used in this assay is mlh1 rad18
This is part of a sample that, as a whole, favours compounds with a hit. Of some 79,000 tested, about 15% had one in any assay. Activity calls are given as the source filed them. No stated cut-off is given here; in the data, active means growth inhibition above about 70%; inactive means the rest.

According to the records, this compound CC(=O)[O][Hg][c]1ccc(N)[c]([Hg][O]C(C)=O)c1 displays growth inhibition of 99.1% (active)

According to the records, this compound COc1ccc(CC2OC3(CCCCC3)CC3CCCCN32)cc1 (stereo not given) displays growth inhibition of 6% (inactive)

According to the records, this compound CC(C)(C)OOC(=O)/C=C\C(=O)OOC(C)(C)C displays growth inhibition of -12.7% (inactive)

According to the records, this compound CC(=O)CC(C)=O.[In] displays growth inhibition of 2.65% (inactive)

According to the records, this compound CCCN(CCC)C(=O)CCl displays growth inhibition of 9.4% (inactive)

According to the records, this compound CCC[CH2][Sn]1([CH2]CCC)[O]C(=O)c2cccnc2[S]1 displays growth inhibition of 79.8% (active)

According to the records, this compound O=S(=O)(O)O.[Co+2].[NH-]CC[NH-].[NH-]CC[NH-].[NH-]CC[NH-] displays growth inhibition of 1% (inactive)

According to the records, this compound O=C(Oc1ccc(S(=O)(=O)F)cc1Cl)c1ccc([N+](=O)[O-])cc1 displays growth inhibition of 93.7% (active)

According to the records, this compound COc1ccc(C[As+](c2ccccc2)(c2ccccc2)c2ccccc2)cc1 displays growth inhibition of 97.2% (active)

According to the records, this compound COC1CC(OC2C(C)OC(OC3C(C)OC(OC4C(C)OC(O[C@H]5CC[C@@]6(C)C(=CC[C@]7(O)[C@@H]6C[C@@H](OC(C)=O)[C@@]6(C)[C@]7(O)CC[C@@]6(O)C(C)=O)C5)CC4OC)CC3OC)CC2OC)OC(C)C1O (stereo not given in full) displays growth inhibition of -47.1% (inactive)
